Assay: Immersion test: binding / wash-out of photocatalysts from SolGel coatings (1 h deionised water, UV-VIS signal loss)
Type: physicochemical
Settings: Rezeptur 5 coating on glass, dye 10 bis 40 mM; 1 h deionised water pH 6 ± 1, 22 ± 3 °C; relative UV-VIS signal loss at absorption maximum
Text: Für alle Untersuchungen wurden nach Beispiel 8 beschichtete Glasträger verwendet. Um das Auswaschen der verschiedenen Farbstoffe in den Sol-Gel-Beschichtungen zu beurteilen wurde ein Immersionstest in vollentsalztem Wasser mit einem pH-Wert von (6 ± 1) und einer Wassertemperatur von (22 ± 3) °C für eine Stunde durchgeführt. […]
experimental.readout: Verlust durch Auswaschen (%)
Reply numerically in %, unit not repeated.

A selection of reference data follows.
{"columns": ["compound", "Verlust durch Auswaschen, %"],
 "data": [
  ["COCCC1=Cc2nc1ccc1[nH]c(cc1CCOC)c1nc(c(OC(=O)CCC(N)C(=O)O)cc3[nH]c2cc3CCOC)C(CCOC)=C1 (stereo not drawn) [S-74]", 11],
  ["O=C1C(COc2ccc(O)cc2)=Cc2cccc3cccc1c23 [S-12]", 3]
]}

Given the entry COCCC1=Cc2nc1ccc1[nH]c(cc1CCOC)c1nc(c(OCCCNC(=O)CCC(N)C(=O)O)cc3[nH]c2cc3CCOC)C(CCOC)=C1 (stereo not drawn) [S-75] , report its measured Verlust durch Auswaschen.
9

Query OCCC1=Cc2nc1ccc1[nH]c(cc1CCO)c1nc(c(O)cc3[nH]c2cc3CCO)C(CCO)=C1 [Verbindungen S-59a] next
8

Query COCCC1=Cc2nc1ccc1[nH]c(cc1CCOC)c1nc(c(OCCC[Si](OC)(OC)OC)cc3[nH]c2cc3CCOC)C(CCOC)=C1 [S-68] next
9

Query COCCC1=Cc2nc1ccc1[nH]c(cc1CCOC)c1nc(c(OCCCC(=O)O)cc3[nH]c2cc3CCOC)C(CCOC)=C1 [S-66a] next
3

Query CCCCCCCCCCOc1ccc(/C=C/C(=O)CC(=O)/C=C/c2ccc(OCCCCCCCCCC)cc2)cc1 [S-52a] next
13

Query CC(=O)OCCC1=Cc2nc1ccc1[nH]c(cc1CCOC(C)=O)c1nc(c(O)cc3[nH]c2cc3CCOC(C)=O)C(CCOC(C)=O)=C1 [S-60a] next
8

Query CC(C)(O)c1cc[n+](CC2=Cc3cccc4cccc(c34)C2=O)cc1 [S-25a] next
8

Query COCCC1=Cc2nc1ccc1[nH]c(cc1CCOC)c1nc(c(O)cc3[nH]c2cc3CCOC)C(CCOC)=C1 [S-58a] next
4

Query COCCC1=Cc2nc1c(O)cc1[nH]c(cc1CCOC)c1nc(c(NC(C)=O)cc3[nH]c2cc3CCOC)C(CCOC)=C1 [S-70] next
4

Query O=C1C(C[n+]2ccccc2)=Cc2cccc3cccc1c23 [S-24a] next
9
